# TARGET DESC: T1, human MSLN on OVCAR3 tumor cells (human, UniProt Q13421 296-598)
# T1 construct: whole, on cells; also called human MSLN protein
# T1 sequence (Q13421 other isoform, or with tags, fused parts or gaps): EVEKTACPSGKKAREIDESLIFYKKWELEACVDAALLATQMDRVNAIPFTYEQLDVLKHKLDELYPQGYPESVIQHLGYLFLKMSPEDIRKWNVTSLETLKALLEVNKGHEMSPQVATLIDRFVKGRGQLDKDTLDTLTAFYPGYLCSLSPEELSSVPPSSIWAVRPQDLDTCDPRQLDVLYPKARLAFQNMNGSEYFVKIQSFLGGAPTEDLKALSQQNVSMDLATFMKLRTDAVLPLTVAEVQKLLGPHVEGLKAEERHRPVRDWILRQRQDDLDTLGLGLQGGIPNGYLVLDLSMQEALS
# RUN DESCRIPTION: FACS, OVCAR3 cells
Maximum_MFI by entry:
Reply with just the number (in MFI).

Kindly note the recorded Maximum_MFI for F7.33.24-H5 (scFv, not shown: small tags and cut ends, also called S009-F7.33.24 humanized antibody VH1a + VL2) scFv: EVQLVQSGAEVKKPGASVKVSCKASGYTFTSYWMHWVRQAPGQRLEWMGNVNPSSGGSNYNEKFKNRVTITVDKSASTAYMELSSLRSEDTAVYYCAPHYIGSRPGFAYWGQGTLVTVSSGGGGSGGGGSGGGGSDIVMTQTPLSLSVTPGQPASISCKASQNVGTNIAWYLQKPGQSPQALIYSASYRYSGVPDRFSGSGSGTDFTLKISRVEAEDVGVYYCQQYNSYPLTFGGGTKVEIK , which is 2420

Kindly note the recorded Maximum_MFI for F7.33.24-H3 (scFv, not shown: small tags and cut ends, also called S009-F7.33.24 humanized antibody VH1 + VL3) scFv: EVQLVQSGAEVKKPGASVKVSCKASGYTFTSYWMHWVRQAPGQRLEWMGNVNPSNGGSNYNEKFKNRVTITVDKSASTAYMELSSLRSEDTAVYYCAPHYIGSRPGFAYWGQGTLVTVSSGGGGSGGGGSGGGGSDIVMTQTPLSLSVTPGQPASISCKASQNVGTNIAWYQQKPGQSPQALIYSASYRYSGVPDRFSGSGSGTDFTLKISRVEAEDVGVYYCQQYNSYPLTFGGGTKVEIK , which is 2370
